tested on: S100A10 (Homo sapiens, UniProt P60903)
Sequence (P60903 whole entry): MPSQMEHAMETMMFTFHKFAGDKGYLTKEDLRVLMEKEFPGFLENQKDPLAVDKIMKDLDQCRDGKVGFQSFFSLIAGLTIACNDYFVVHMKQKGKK
pKd: −log10 of the molar value.
// pKd lookup, one value per entry

# chem smiles, pKd
measured = [
    ("CSCC[C@@H](CC(=O)N[C@H]1CCCC[C@@H]1C(=O)NCC(=O)N[C@@H](CCCCNC(=O)c1ccc2c(c1)C1(OC2=O)c2ccc(O)cc2Oc2cc(O)ccc21)C(N)=O)NC(=O)[C@H]1CCCC[C@@H]1NC(=O)[C@H]1CCCC[C@@H]1NC(=O)C[C@@H](NC(=O)[C@H]1CCCC[C@@H]1N)[C@@H](C)O", "< 3.00"),
    ("CC[C@H](C)[C@@H](CC(=O)N[C@H]1CCCC[C@@H]1C(=O)NCC(=O)N[C@@H](CCCCNC(=O)c1ccc2c(c1)C1(OC2=O)c2ccc(O)cc2Oc2cc(O)ccc21)C(N)=O)NC(=O)[C@H]1CCCC[C@@H]1NC(=O)[C@H]1CCCC[C@@H]1NC(=O)C[C@@H](NC(=O)[C@H]1CCCC[C@@H]1N)[C@@H](C)O", "< 3.00"),
    ("N=C(N)NCCC[C@@H](CC(=O)N[C@H]1CCCC[C@@H]1C(=O)NCC(=O)N[C@@H](CCCCNC(=O)c1ccc2c(c1)C1(OC2=O)c2ccc(O)cc2Oc2cc(O)ccc21)C(N)=O)NC(=O)[C@H]1CCCC[C@@H]1NC(=O)[C@H]1CCCC[C@@H]1NC(=O)C[C@H](CCCNC(=N)N)NC(=O)[C@H]1CCCC[C@@H]1N", "< 3.00"),
]
